Answer each item with its documented viability, T/C.
# Tested on: 485176-168-R4-J1-PDC complex spheroid growth;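 further: spheroids exposed to compounds for seven days before readout; luminescence viability expressed relative to DMSO vehicle wells set as 100%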
# assay info: Anticancer human tumor 485176-168-R4-J1-PDC patient-derived pancreatic adenocarcinoma cell line growth inhibition [RAS]
# particulars: second compound 0.03 µM; first compound 0.0949 µM; active compounds read low

Ask: Notebook: pull reported viability, T/C for 485176-168-R4-J1-PDC complex spheroid growth, entry CCc1c2c(nc3ccc(O)cc13)-c1cc3c(c(=O)n1C2)COC(=O)[C@]3(O)CC + CCn1c(-c2cccnc2C(C)OC)c2c3cc(ccc31)N1CCOC(CC(NC(=O)C(C(C)C)N(C)C(=O)C3(F)CCN(C(=O)C#CC(C)(C)N(C)C)CC3)C(=O)N3CCCC(N3)C(=O)OCC(C)(C)C2)C1
Reply: 10.9%

Ask: Notebook: pull reported viability, T/C for 485176-168-R4-J1-PDC complex spheroid growth, entry CC1(C)CCC(Nc2ncc(C(F)(F)F)c(-c3c[nH]c4c(P(C)(C)=O)c(C#N)ccc34)n2)CN1 (centres undefined) + CCn1c(-c2cc(N3CCN(C)CC3)cnc2C(C)OC)c2c3cc(ccc31)-c1csc(n1)CC(NC(=O)C1CC1C)C(=O)N1CCCC(N1)C(=O)OCC(C)(C)C2
Reply: 49.8%

Ask: Notebook: pull reported viability, T/C for 485176-168-R4-J1-PDC complex spheroid growth, entry CC1(C)CCC(Nc2ncc(C(F)(F)F)c(-c3c[nH]c4c(P(C)(C)=O)c(C#N)ccc34)n2)CN1 (centres undefined) + CCn1c(-c2cccnc2C(C)OC)c2c3cc(ccc31)N1CCOC(CC(NC(=O)C(C(C)C)N(C)C(=O)C3(F)CCN(C(=O)C#CC(C)(C)N(C)C)CC3)C(=O)N3CCCC(N3)C(=O)OCC(C)(C)C2)C1
Reply: 39%

Ask: Notebook: pull reported viability, T/C for 485176-168-R4-J1-PDC complex spheroid growth, entry CCc1c2c(nc3ccc(O)cc13)-c1cc3c(c(=O)n1C2)COC(=O)[C@]3(O)CC + CCn1c(-c2cc(N3CCN(C)CC3)cnc2C(C)OC)c2c3cc(ccc31)-c1csc(n1)CC(NC(=O)C1CC1C)C(=O)N1CCCC(N1)C(=O)OCC(C)(C)C2
Reply: 15.9%

Origin of measurements: PubChem BioAssay AID2060906
